MEASUREMENT_PROTOCOL: Selectivity index, ratio of IC50 for rat L6 cells to IC50 for chloroquine-resistant Plasmodium falciparum K1
Format: toxicity, cell-based
SETUP_CONDITIONS: L6 cells (cytotoxicity) versus Plasmodium falciparum K1, read-out: Ratio IC50
# selectivity ratio >= 1000 gives MET, anything below gives NOT MET

Solved entries:
[
  {
    "SMILES_NOTATION": "C[C@H]1[C@H](OC(=O)CCC(=O)NCC(C)(C)CNc2c3c4ccccc4nc-3n(C)c3ccc(Cl)cc23)O[C@@H]2O[C@@]3(C)CC[C@H]4CCC[C@@H]1[C@]42OO3",
    "ANSWER_LABEL": "MET"
  },
  {
    "SMILES_NOTATION": "C[C@H]1[C@H](OC(=O)CCC(=O)NCCCNc2nc3ccccc3c3[nH]c4ccccc4c23)O[C@@H]2O[C@@]3(C)CC[C@H]4[C@H](C)CC[C@@H]1[C@@]24OO3",
    "ANSWER_LABEL": "MET"
  },
  {
    "SMILES_NOTATION": "COC(=O)c1ccc2c(c1)c(NCCCNC(=O)CCC(=O)O[C@@H]1O[C@@H]3O[C@@]4(C)CC[C@H]5CCC[C@@H]([C@H]1C)[C@]53OO4)c1c3ccccc3nc-1n2C",
    "ANSWER_LABEL": "MET"
  },
  {
    "SMILES_NOTATION": "C[C@H]1[C@H](OC(=O)CCC(=O)NCC(C)(C)CNc2c3c4ccccc4nc-3n(C)c3ccc(Br)cc23)O[C@@H]2O[C@@]3(C)CC[C@H]4CCC[C@@H]1[C@]42OO3",
    "ANSWER_LABEL": "MET"
  },
  {
    "SMILES_NOTATION": "NCCCNc1nc2ccccc2c2[nH]c3ccccc3c12",
    "ANSWER_LABEL": "NOT MET"
  }
]

Assess whether reported selectivity ratio for `COC(=O)c1ccc2c(c1)c(NCC(C)(C)CNC(=O)CCC(=O)O[C@@H]1O[C@@H]3O[C@@]4(C)CC[C@H]5CCC[C@@H]([C@H]1C)[C@]53OO4)c1c3ccccc3nc-1n2C` sits at 1000 or higher.
NOT MET
